# PROTOCOL DETAILS: CelltiterGlo viability cell assay
# Assay type: cell-based
# ASSAY SETUP: human, RPMI-8226 multiple myeloma cells, 8226, 3 day, 3 uM; read-out: viability Replicate 3
REPORTED ENDPOINT: viability at 3 day, 3 µM
Just so you know, I need the unit written after the number.

Supply measured viability at 3 day, 3 µM of COc1cc(OC)cc(-c2noc(N3CCN(C)C4(CCN(c5ccnc(C)c5)CC4)C3)n2)c1 in your reply.
107%

----------
# PROTOCOL DETAILS: CelltiterGlo viability cell assay
# Assay type: cell-based
# ASSAY SETUP: human, CAL851 breast cancer cells, CAL851, 3 day, 0.3 uM; read-out: viability Replicate 3
REPORTED ENDPOINT: viability at 3 day, 0.3 µM (%)
One number for each entry, in %.

Supply measured viability at 3 day, 0.3 µM of COc1cc(OC)cc(-c2noc(N3CCN(C)C4(CCN(c5ccnc(C)c5)CC4)C3)n2)c1 in your reply.
104
